Biological target: SARS-CoV-2 Spike Protein (RBD)(R319-F541).mFc (SARS-CoV-2)
Assay: Luminex, supernatant
Strictly below 30000 MFI in MFI: class 1. Otherwise: class 0.

Request: Consider mAb10921 (antibody, V domains shown) VH: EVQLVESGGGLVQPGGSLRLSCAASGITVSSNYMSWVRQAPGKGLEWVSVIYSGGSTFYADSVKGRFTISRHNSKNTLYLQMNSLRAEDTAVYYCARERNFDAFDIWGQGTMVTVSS VL: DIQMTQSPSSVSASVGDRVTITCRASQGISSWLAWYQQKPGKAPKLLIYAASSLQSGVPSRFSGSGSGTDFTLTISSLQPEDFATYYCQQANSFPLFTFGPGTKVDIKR . Does its MFI lie strictly below 30000 MFI?
Result: class 1

Request: Consider mAb10984 (antibody, V domains shown) VH: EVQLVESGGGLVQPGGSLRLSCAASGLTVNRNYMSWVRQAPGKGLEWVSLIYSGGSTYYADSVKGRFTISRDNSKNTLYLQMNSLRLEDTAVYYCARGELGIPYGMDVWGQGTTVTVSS VL: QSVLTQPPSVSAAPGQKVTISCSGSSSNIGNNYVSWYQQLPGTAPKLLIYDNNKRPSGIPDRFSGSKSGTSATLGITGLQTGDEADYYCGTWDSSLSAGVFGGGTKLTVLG . Does its MFI lie strictly below 30000 MFI?
Result: class 1

Request: Consider mAb10920 (antibody, V domains shown) VH: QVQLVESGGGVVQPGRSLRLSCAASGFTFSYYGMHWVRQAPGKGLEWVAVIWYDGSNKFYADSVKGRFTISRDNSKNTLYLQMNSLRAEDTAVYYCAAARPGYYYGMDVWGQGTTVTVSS VL: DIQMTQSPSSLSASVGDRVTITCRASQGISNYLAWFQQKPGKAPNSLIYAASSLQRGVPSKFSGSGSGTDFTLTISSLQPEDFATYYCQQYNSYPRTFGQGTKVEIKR . Does its MFI lie strictly below 30000 MFI?
Result: class 0
